Origin of the recorded values: ChEMBL document CHEMBL1208713

molecular target: Carbonic anhydrase 12 (Homo sapiens) (UniProt O43570)
Sequence (O43570 whole entry): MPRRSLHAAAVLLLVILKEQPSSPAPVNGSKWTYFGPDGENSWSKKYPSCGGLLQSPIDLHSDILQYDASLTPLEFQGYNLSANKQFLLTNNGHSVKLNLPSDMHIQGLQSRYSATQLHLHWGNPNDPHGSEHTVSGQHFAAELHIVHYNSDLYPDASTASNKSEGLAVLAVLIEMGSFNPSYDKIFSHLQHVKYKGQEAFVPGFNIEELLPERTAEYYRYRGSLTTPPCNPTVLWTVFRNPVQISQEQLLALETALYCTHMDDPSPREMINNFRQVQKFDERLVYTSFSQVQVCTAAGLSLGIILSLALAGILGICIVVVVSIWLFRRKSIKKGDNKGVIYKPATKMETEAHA
Response field label takes Satisfied when Ki is strictly below 6 µM and Not satisfied in all other cases.

{"cpd-smiles": "O=c1cc(O)c2ccccc2o1", "class-name": "Not satisfied"}
{"cpd-smiles": "O=c1oc2ccccc2cc1O", "class-name": "Not satisfied"}
{"cpd-smiles": "O=c1cc(CCl)c2ccc(O)cc2o1", "class-name": "Not satisfied"}
{"cpd-smiles": "O=c1ccc2cc(O)ccc2o1", "class-name": "Satisfied"}
{"cpd-smiles": "O=c1ccc2ccccc2o1", "class-name": "Not satisfied"}
{"cpd-smiles": "O=c1cc(CCl)c2ccc(Cl)cc2o1", "class-name": "Satisfied"}
{"cpd-smiles": "O=c1cc(Cl)c2ccccc2o1", "class-name": "Not satisfied"}

---

Reported Ki, Carbonic anhydrase 1 (Homo sapiens).

{"cpd-smiles": "O=c1cc(CCl)c2ccc(O)cc2o1", "unit-abbreviation": "µM", "qualifying-sign": ">", "Ki": 100}
{"cpd-smiles": "O=c1ccc2cc(O)ccc2o1", "unit-abbreviation": "µM", "qualifying-sign": ">", "Ki": 100}
{"cpd-smiles": "O=c1ccc2ccc(O)cc2o1", "unit-abbreviation": "µM", "qualifying-sign": "=", "Ki": 58.4}
{"cpd-smiles": "O=c1cc(O)c2ccccc2o1", "unit-abbreviation": "µM", "qualifying-sign": "=", "Ki": 95}
{"cpd-smiles": "O=c1cc(CCl)c2ccc(Cl)cc2o1", "unit-abbreviation": "µM", "qualifying-sign": "=", "Ki": 72.8}
{"cpd-smiles": "O=c1cc(Cl)c2ccccc2o1", "unit-abbreviation": "µM", "qualifying-sign": "=", "Ki": 86.9}
{"cpd-smiles": "O=c1oc2ccccc2cc1O", "unit-abbreviation": "µM", "qualifying-sign": "=", "Ki": 79.4}

---

biological target: Carbonic anhydrase 9 (Homo sapiens); assay: Inhibition of human CA9 by CO2 hydration assay
measurement-name: log10 of Ki (log10 of the value in µM)

{"cpd-smiles": "O=c1cc(O)c2ccccc2o1", "target-system": "Carbonic anhydrase 9 (Homo sapiens)", "log10 of Ki": -0.38}
{"cpd-smiles": "O=c1cc(CCl)c2ccc(O)cc2o1", "target-system": "Carbonic anhydrase 9 (Homo sapiens)", "log10 of Ki": -0.32}
{"cpd-smiles": "O=c1ccc2cc(O)ccc2o1", "target-system": "Carbonic anhydrase 9 (Homo sapiens)", "log10 of Ki": -0.70}
{"cpd-smiles": "O=c1ccc2ccc(O)cc2o1", "target-system": "Carbonic anhydrase 9 (Homo sapiens)", "log10 of Ki": -0.32}
{"cpd-smiles": "O=c1cc(Cl)c2ccccc2o1", "target-system": "Carbonic anhydrase 9 (Homo sapiens)", "log10 of Ki": 0.69}
{"cpd-smiles": "O=c1cc(CCl)c2ccc(Cl)cc2o1", "target-system": "Carbonic anhydrase 9 (Homo sapiens)", "log10 of Ki": -0.44}
{"cpd-smiles": "O=c1oc2ccccc2cc1O", "target-system": "Carbonic anhydrase 9 (Homo sapiens)", "log10 of Ki": -0.29}
